Biological target: T1, IL1RAPL1 (Mus musculus (Mouse), UniProt P59823)
T1 chain: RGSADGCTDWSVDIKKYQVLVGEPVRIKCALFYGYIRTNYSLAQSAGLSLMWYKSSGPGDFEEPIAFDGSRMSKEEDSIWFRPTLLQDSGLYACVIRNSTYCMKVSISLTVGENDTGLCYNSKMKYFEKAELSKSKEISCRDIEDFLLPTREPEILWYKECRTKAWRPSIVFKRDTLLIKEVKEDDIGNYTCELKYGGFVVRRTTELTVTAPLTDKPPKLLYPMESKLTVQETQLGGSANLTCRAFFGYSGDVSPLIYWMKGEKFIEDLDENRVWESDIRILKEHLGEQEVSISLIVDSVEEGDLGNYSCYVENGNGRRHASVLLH
Experiment: SPR equilibrium 25C, PTPRD Ig1-Fn1 analyte
parameter: Kd

If you can, please state the reported Kd value of PTPRD_A0B1 (protein) ETPPRFTRTPVDQTGVSGGVASFICQATGDPRPKIVWNKKGKKVSNQRFEVIEFDDGSGSVLRIQPLRTPRDEAIYECVASNNVGEISVSTRLTVLREDQIPRGFPTIDMGPQLKVVERTRTATMLCAASGNPDPEITWFKDFLPVDTSNNNGRIKQLRSGALQIEQSEESDQGKYECVATNSAGTRYSAPANLYVRELREVRRVPPRFSIPPTNHEIMPGGSVNITCVAVGSPMPYVKWMLGAEDLTPEDDMPIGRNVLELNDVRQSANYTCVAMSTLGVIEAIAQITVKA . > 4 µM
